Provide the recorded growth for the entries that follow.
# System: TK-10 renal
# PROCEDURE_SUMMARY: NCI-60 one-dose screen, 48 h (100 = growth as untreated, 0 = no growth, -100 = all killed)
# CONDITIONS_USED: 10 µM unless noted
This is part of a sample that, as a whole, favours compounds with a hit. Of some 83,000 tested, about 20% had one in any assay.
Give bare numbers, in %.

Sample answers from the record:
{"COMPOUND": "O=C(Nc1ncc(Cc2ccccc2Cl)s1)c1ccc2c(c1)OCCO2", "growth / %": 46.2}
{"COMPOUND": "CN(C)CCOc1ccc(/C(=C(/CCCCCCCCCC[P+](c2ccccc2)(c2ccccc2)c2ccccc2)c2ccccc2)c2ccccc2)cc1", "growth / %": -82.7}
{"COMPOUND": "CC/C(=C(/c1ccc(Cl)cc1)c1ccc(OCCN(CC)CC)cc1)c1ccc(OC)cc1", "growth / %": 64.9}
{"COMPOUND": "COc1cc(/C=C2\\CN(S(=O)(=O)c3ccc(C)cc3)C/C(=C\\c3cc(CN4CCCC4)c(O)c(OC)c3)C2=O)cc(CN2CCCC2)c1O", "growth / %": 24.7}
{"COMPOUND": "C[C@H]1c2ccccc2CN1CCCOc1cc2c(cc1OCC1CC1)C1(CCCC1)C(N)=N2", "growth / %": 92.7}
{"COMPOUND": "O=C(Nc1ccccc1)Nc1ccccc1CNc1nc(Nc2ccc(OCCN3CCCC3)cc2)ncc1Cl", "growth / %": 94.8}
{"COMPOUND": "CC(C)(C)CC(C)(C)Nc1c(-c2c(O)c3ccccc3oc2=O)nc2sccn12", "growth / %": 90.5}
{"COMPOUND": "O=C(CN1C(=O)NC2NC(=O)NC21)N/N=C/c1cccc([N+](=O)[O-])c1 (centres undefined)", "growth / %": 106}

Pending compound:
## Input Can you look up the measured growth of `CC(C)n1cc(C2=C(c3cccc4ccccc34)C(=O)NC2=O)c2cc(Br)ccc21` for me?
## Output 109
